Target: T1, human prolactin receptor (PRLR) (human, UniProt P16471 25-622)
T1 sequence: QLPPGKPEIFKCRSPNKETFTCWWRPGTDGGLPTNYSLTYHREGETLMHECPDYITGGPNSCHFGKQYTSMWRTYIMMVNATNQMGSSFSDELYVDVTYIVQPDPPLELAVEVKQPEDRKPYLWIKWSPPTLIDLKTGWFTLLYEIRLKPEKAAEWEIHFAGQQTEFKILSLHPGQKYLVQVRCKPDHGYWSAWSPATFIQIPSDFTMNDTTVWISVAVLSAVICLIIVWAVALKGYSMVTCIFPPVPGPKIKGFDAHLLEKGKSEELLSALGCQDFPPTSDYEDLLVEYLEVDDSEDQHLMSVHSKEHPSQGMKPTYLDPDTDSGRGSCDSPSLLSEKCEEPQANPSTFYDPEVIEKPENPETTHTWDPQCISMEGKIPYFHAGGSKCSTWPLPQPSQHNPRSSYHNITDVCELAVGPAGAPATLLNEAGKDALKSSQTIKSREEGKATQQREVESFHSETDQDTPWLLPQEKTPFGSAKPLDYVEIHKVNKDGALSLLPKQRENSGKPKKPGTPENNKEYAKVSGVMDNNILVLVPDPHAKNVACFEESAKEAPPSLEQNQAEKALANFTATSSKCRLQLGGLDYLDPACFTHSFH
Assay: cell-based or functional assay
attribute-measured: IC50, cell viability, MCF7/PRLR cells (nM)
// units = nM; emit number, no label

Example binders with recorded IC50, cell viability, MCF7/PRLR cells:
binder="H1H6958N2-DM1 (antibody, human IgG1, V domains shown, DM1 conjugated through SMCC linker; attachment residues not stated) VH: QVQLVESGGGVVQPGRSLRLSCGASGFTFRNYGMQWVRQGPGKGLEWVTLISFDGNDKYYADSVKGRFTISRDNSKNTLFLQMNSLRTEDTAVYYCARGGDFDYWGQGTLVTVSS VL: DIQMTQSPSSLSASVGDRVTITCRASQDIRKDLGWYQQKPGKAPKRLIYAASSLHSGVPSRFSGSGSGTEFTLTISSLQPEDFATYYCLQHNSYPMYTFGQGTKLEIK" assay_value=0.2
binder="H1H6765P-mc-VC-PAB-MMAE (antibody, human IgG1, V domains shown, MMAE conjugated through cleavable mc-vc-PAB linker; attachment residues not stated) VH: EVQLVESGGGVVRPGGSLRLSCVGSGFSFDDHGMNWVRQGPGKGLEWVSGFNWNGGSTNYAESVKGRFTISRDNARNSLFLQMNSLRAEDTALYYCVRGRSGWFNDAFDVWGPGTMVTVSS VL: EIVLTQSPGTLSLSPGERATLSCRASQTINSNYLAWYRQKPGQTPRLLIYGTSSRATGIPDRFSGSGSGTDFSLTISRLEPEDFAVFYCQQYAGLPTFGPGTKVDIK" assay_value=0.2

Request: Query: IC50, cell viability, MCF7/PRLR cells; subject: H1H6958N2-SPDB-DM4 (antibody, human IgG1, V domains shown, DM4 conjugated through SPDB linker; attachment residues not stated) VH: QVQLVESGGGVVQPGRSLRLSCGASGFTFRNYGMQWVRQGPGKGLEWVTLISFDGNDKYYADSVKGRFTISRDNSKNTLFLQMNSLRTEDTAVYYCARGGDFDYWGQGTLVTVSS VL: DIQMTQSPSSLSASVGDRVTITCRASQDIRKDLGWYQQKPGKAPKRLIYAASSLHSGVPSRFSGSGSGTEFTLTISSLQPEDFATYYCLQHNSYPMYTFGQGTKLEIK
Response: 0.8

Where do these numbers come from? They come from patent US20180185504A1.
